Test: Metabolic stability in rat liver microsomes assessed as intrinsic clearance at 1 uM measured upto 15 mins in presence of NADPH regenerating system by LC-MS/MS analysis
Assay type: ADME, Microsome
Settings: read-out: CLH
endpoint-label: microsomal CLint at 1 µM (µL/min/mg)
Just the number in µL/min/mg, nothing appended.

Cc1cccc(F)c1N1CCC(N2Cc3ccccc3N(Cc3ccccc3C(F)(F)F)C2=O)CC1 58

Next compound, please.
Query :: Hello, please tell me recorded microsomal CLint at 1 µM for this one: COc1cccc2c1n(Cc1ccccc1C(F)(F)F)c(=O)n2C1CCN(c2c(C)cccc2C)CC1
Result :: 81

====

Test: Volume of distribution at steady state in Wistar rat at 0.3 mg/kg, iv
Assay type: ADME, organism-based
Details: in vivo, read-out: Vdss
endpoint-label: Vd (L/kg)
Supply the numeric figure in L/kg, leaving out any unit text.

Cc1cccc(F)c1N1CCC(N2Cc3ccccc3N(Cc3ccccc3C(F)(F)F)C2=O)CC1 1.1

Here is another molecule to look at.
Query :: Provide one value: measured Vd of COc1cccc2c1n(Cc1ccccc1C(F)(F)F)c(=O)n2C1CCN(c2c(C)cccc2C)CC1
Result :: 7.1

====

Recorded measurements of Tmax, one per entry
Assay: Tmax in Wistar rat at 10 mg/kg, po administered as suspension
Type: ADME, organism-based
Conditions: in vivo
Numeric answer only, unit h assumed.

Cc1cccc(F)c1N1CCC(N2Cc3ccccc3N(Cc3ccccc3C(F)(F)F)C2=O)CC1 1

Moving on to the next compound.
Query :: Give the reported Tmax for this compound. COc1cccc2c1n(Cc1ccccc1C(F)(F)F)c(=O)n2C1CCN(c2c(C)cccc2C)CC1
Result :: 1

====

Assay: Metabolic stability in human liver microsomes assessed as intrinsic clearance at 1 uM measured upto 15 mins in presence of NADPH regenerating system by LC-MS/MS analysis
Format: ADME, Microsome
Conditions: read-out: CLH
endpoint-label: microsomal CLint at 1 µM (µL/min/mg)
Kindly answer with a numeric value in µL/min/mg, unit omitted.

Solved entries (count: 5):
COc1cccc2c1n(Cc1ccccc1C(F)(F)F)c(=O)n2[C@@H]1CCN(c2c(C)cccc2C)C1 139
COc1cccc(F)c1N1CCC(N2Cc3ccccc3N(Cc3ccccc3C(F)(F)F)C2=O)CC1 20
COc1cccc(C)c1N1CC[C@@H](n2c(=O)n(Cc3ccccc3C(F)(F)F)c3c(OC)cccc32)C1 218
O=C1N(Cc2ccccc2C(F)(F)F)c2ccccc2CN1C1CCN(c2c(F)cccc2F)CC1 22
COc1cccc(F)c1N1CCC(n2c(=O)n(Cc3ccccc3C(F)(F)F)c3c(OC)cccc32)CC1 24

Then there is this compound:
Query :: Name the recorded microsomal CLint at 1 µM of the compound listed here: COc1cccc2c1n(Cc1ccccc1C(F)(F)F)c(=O)n2[C@@H]1CCN(c2c(F)cccc2F)C1
Result :: 307

====

Assay: Metabolic stability in human liver microsomes assessed as intrinsic clearance at 1 uM measured upto 15 mins in presence of NADPH regenerating system by LC-MS/MS analysis
Format: ADME, Microsome
Conditions: read-out: CLH
microsomal CLint at 1 µM listing for selected molecules.
Note: unit µL/min/mg is implicit; provide only the numeric part.

COc1cccc2c1n(Cc1ccccc1C(F)(F)F)c(=O)n2[C@@H]1CCN(c2c(C)cccc2F)C1 184
COc1cccc2c1n(Cc1ccccc1C(F)(F)F)c(=O)n2C1CCN(c2c(C)cccc2C)CC1 45
Cc1cccc(C)c1N1CCC(N2Cc3ccccc3N(Cc3ccccc3C(F)(F)F)C2=O)CC1 3
Cc1cccc(C)c1N1CC[C@@H](N2Cc3ccccc3N(Cc3ccccc3C(F)(F)F)C2=O)C1 140

Consider the record given below.
Query :: Write down microsomal CLint at 1 µM measured for item COc1cccc2c1n(Cc1ccccc1C(F)(F)F)c(=O)n2C1CCN(c2c(F)cccc2F)CC1
Result :: 16
